Values compiled from patent US9079905B2.

Give measured inhibition at 10 µM for each item. Keep answers brief.
Target: human PDE9A2 (Homo sapiens)
Construct: made in house; host or cells: Sf9 insect cells (infected; crude lysate used as enzyme source)
Assay: PDE9A2 enzymatic activity assay (scintillation proximity assay)
Assay type: biochemical
Conditions: at 10 μM; read-out: % Inhibition of PDE 9A2

As a guide, the following entries are already answered.
COc1cncc(-c2ccccc2Cc2nc3c(cnn3C3CCC(F)(F)CC3)c(=O)[nH]2)c1 = 100%
O=c1[nH]c(Cc2ccccc2-c2ccnnc2)nc2c1cnn2C1CCC(F)(F)CC1 = 100%
COC1CCCCC1n1ncc2c(=O)[nH]c(Cc3ccccn3)nc21 (racemic) = 83%
O=c1[nH]c(Cc2ccc(F)cc2Br)nc2c1cnn2C1CCC(F)(F)CC1 = 92%

Hello, I would appreciate it if you could give inhibition at 10 µM for each entry below.
1. O=c1[nH]c(Cc2ccccc2-n2cnnc2)nc2c1cnn2C1CCC(F)(F)CC1
2. COc1ncccc1-c1ccc(F)cc1Cc1nc2c(cnn2C2CCC(F)(F)CC2)c(=O)[nH]1

Reply:
["99%", "98%"]

###

Target: human PDE9A2 (Homo sapiens)
Construct: made in house; host or cells: Sf9 insect cells (infected; crude lysate used as enzyme source)
Assay: PDE9A2 enzymatic activity assay (scintillation proximity assay)
Type: biochemical
Conditions: at 10 μM; read-out: % Inhibition of PDE 9A2
Parameter: inhibition at 10 µM (%)
One number for each entry, in %.

As a guide, the following entries are already answered.
O=c1[nH]c(C(F)c2ccccc2-n2cccn2)nc2c1cnn2C1CCC(F)(F)CC1 (single isomer, unassigned) [Example 92] = 93
Cc1nc(-c2ccccc2Cc2nc3c(cnn3C3CCC(F)(F)CC3)c(=O)[nH]2)n[nH]1 [Example 99] = 100
O=c1[nH]c(Cc2ccccn2)nc2c1cnn2C1CCCC(c2ccccc2)C1 (mixture of isomers) [Example 14] = 94
Cc1nc(-c2ccccc2Cc2nc3c(cnn3C3CCC(F)(F)CC3)c(=O)[nH]2)no1 [Example 97] = 100

Could you now consider this next compound?
Task item: Param request: inhibition at 10 µM | system human PDE9A2 (Homo sapiens) | item Cn1cc(-c2cccnc2Cc2nc3c(cnn3C3CCC(F)(F)CC3)c(=O)[nH]2)cn1 [Example 94]
Reply: 98

###

Target: human PDE9A2 (Homo sapiens, UniProt O76083)
Construct: crude lysate used as enzyme source)
Sequence (O76083 1-533 isoform O76083-2): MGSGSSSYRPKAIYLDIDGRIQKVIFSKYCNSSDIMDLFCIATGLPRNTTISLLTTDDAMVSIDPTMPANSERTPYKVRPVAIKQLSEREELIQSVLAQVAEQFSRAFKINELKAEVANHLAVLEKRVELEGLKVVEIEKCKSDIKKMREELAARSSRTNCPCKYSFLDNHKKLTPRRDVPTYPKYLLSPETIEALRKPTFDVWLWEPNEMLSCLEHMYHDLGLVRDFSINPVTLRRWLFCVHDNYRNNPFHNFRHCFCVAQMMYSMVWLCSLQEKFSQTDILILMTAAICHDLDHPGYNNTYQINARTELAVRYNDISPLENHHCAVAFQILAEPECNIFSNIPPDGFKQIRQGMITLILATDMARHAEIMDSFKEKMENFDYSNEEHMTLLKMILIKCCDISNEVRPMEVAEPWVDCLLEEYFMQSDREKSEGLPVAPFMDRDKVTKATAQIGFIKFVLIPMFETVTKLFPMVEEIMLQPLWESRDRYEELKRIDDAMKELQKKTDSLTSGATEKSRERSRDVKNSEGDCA
Assay: PDE9A2 enzymatic activity assay (scintillation proximity assay)
Details: specific IC50 value is within the given range
Give measured IC50 for each item. Keep answers brief.

As a guide, the following entries are already answered.
O=c1[nH]c(Cc2ncccc2C2CC2)nc2c1cnn2C1CCC(F)(F)CC1 = 101 to 1500 nM
COC1CCCCC1n1ncc2c(=O)[nH]c(Cc3ccccn3)nc21 (racemic) = 101 to 1500 nM
CCC(CC)Cc1nc2c(cnn2C2CCC(F)(F)CC2)c(=O)[nH]1 = 1 to 100 nM

Hello, I would appreciate it if you could give IC50 for each entry below.
1. O=c1[nH]c(Cc2ncccc2Br)nc2c1cnn2C1CCC(F)(F)CC1
2. O=c1[nH]c(Cc2ccccc2)nc2c1cnn2C1CCC(F)(F)CC1

Reply:
1: 1 to 100 nM; 2: 1 to 100 nM

###

Biological target: human PDE9A2 (Homo sapiens)
Construct: made in house; host or cells: Sf9 insect cells (infected; crude lysate used as enzyme source)
Experiment: PDE9A2 enzymatic activity assay (scintillation proximity assay)
Assay type: biochemical
Conditions: specific IC50 value is within the given range
Give measured IC50 for each item. Keep answers brief.

As a guide, the following entries are already answered.
COc1cc(-c2ccc(F)cc2Cc2nc3c(cnn3C3CCC(F)(F)CC3)c(=O)[nH]2)ccn1 = 1 to 100 nM
O=c1[nH]c(Cc2cccc(C(F)(F)F)c2)nc2c1cnn2C1CCC(F)(F)CC1 = 1 to 100 nM

Hello, I would appreciate it if you could give IC50 for each entry below.
1. Cn1cc(-c2cccnc2Cc2nc3c(cnn3C3CCC(F)(F)CC3)c(=O)[nH]2)cn1
2. N#Cc1ccc(-c2ccc(F)cc2Cc2nc3c(cnn3C3CCC(F)(F)CC3)c(=O)[nH]2)cc1
3. O=C(NC1CCCC(n2ncc3c(=O)[nH]c(CC4CCCC4)nc32)C1)c1ccccc1 (racemic)
4. O=c1[nH]c(Cc2cc(F)ccc2-c2ccnc(F)c2)nc2c1cnn2C1CCC(F)(F)CC1
5. O=c1[nH]c(Cc2cc(F)ccc2-c2cncc(F)c2)nc2c1cnn2C1CCC(F)(F)CC1
6. O=c1[nH]c(Cc2cc(F)ccc2-n2cccn2)nc2c1cnn2C1CCC(F)(F)CC1
7. CC(=O)NC1CCCC(n2ncc3c(=O)[nH]c(CC4CCCC4)nc32)C1 (racemic)

Reply:
1: 1 to 100 nM; 2: 1 to 100 nM; 3: 101 to 1500 nM; 4: 1 to 100 nM; 5: 1 to 100 nM; 6: 1 to 100 nM; 7: 101 to 1500 nM

Hello, I would appreciate it if you could give IC50 for each entry below.
1. COc1ncccc1-c1ccc(F)cc1Cc1nc2c(cnn2C2CCC(F)(F)CC2)c(=O)[nH]1
2. NC(=O)c1ccc(-c2ccc(F)cc2Cc2nc3c(cnn3C3CCC(F)(F)CC3)c(=O)[nH]2)cn1
3. NC(=O)c1ccc(-c2cc(F)ccc2Cc2nc3c(cnn3C3CCC(F)(F)CC3)c(=O)[nH]2)cn1
4. CC(C)Cc1nc2c(cnn2C2CCC(F)CC2)c(=O)[nH]1 (stereo not shown)
5. Cc1ccn(-c2ccccc2Cc2nc3c(cnn3C3CCC(F)(F)CC3)c(=O)[nH]2)n1
6. CC(C)Cc1nc2c(cnn2C2CCC(F)(F)CC2)c(=O)[nH]1
7. CC(=O)NC1CCCC(n2ncc3c(=O)[nH]c(Cc4ccccc4OC(F)(F)F)nc32)C1 (mixture of isomers)

Reply:
1. 1 to 100 nM
2. 1 to 100 nM
3. 1 to 100 nM
4. 1 to 100 nM
5. 1 to 100 nM
6. 1 to 100 nM
7. 1 to 100 nM

Hello, I would appreciate it if you could give IC50 for each entry below.
1. O=c1[nH]c(Cc2ccccc2-c2cncnc2)nc2c1cnn2C1CCC(F)(F)CC1
2. COc1ccc(-c2cc(F)ccc2Cc2nc3c(cnn3C3CCC(F)(F)CC3)c(=O)[nH]2)cc1
3. C[C@@H]1CC(Cc2nc3c(cnn3C3CCC(F)(F)CC3)c(=O)[nH]2)C(=O)N1C (mixture of isomers)

Reply:
1: 1 to 100 nM; 2: 101 to 1500 nM; 3: 101 to 1500 nM

Hello, I would appreciate it if you could give IC50 for each entry below.
1. O=c1[nH]c(Cc2cc(F)ccc2-c2cccnc2)nc2c1cnn2C1CCC(F)(F)CC1
2. CCC(Cc1nc2c(cnn2C2CCC(F)(F)CC2)c(=O)[nH]1)C(F)(F)F (racemic) [Example 27]
3. COc1cncc(-c2ccc(F)cc2Cc2nc3c(cnn3C3CCC(F)(F)CC3)c(=O)[nH]2)c1

Reply:
1. 1 to 100 nM
2. 1 to 100 nM
3. 1 to 100 nM

###

Target: human PDE9A2 (Homo sapiens)
Construct: made in house; host or cells: Sf9 insect cells (infected; crude lysate used as enzyme source)
Assay: PDE9A2 enzymatic activity assay (scintillation proximity assay)
Assay type: biochemical
Details: at 10 μM; read-out: % Inhibition of PDE 9A2
Give measured inhibition at 10 µM for each item. Keep answers brief.
Give bare numbers, in %.

As a guide, the following entries are already answered.
COc1ccc(-c2cc(F)ccc2Cc2nc3c(cnn3C3CCC(F)(F)CC3)c(=O)[nH]2)cn1 [Example 69] = 97
Cc1ccc(-c2ccccc2Cc2nc3c(cnn3C3CCC(F)(F)CC3)c(=O)[nH]2)cn1 [Example 73] = 98
O=c1[nH]c(Cc2cccc(C(F)(F)F)c2)nc2c1cnn2C1CCC(F)(F)CC1 [Example 6] = 98

Could you now consider this next molecule?
Task item: Return reported inhibition at 10 µM. Input molecule: O=C(NC1CCCC(n2ncc3c(=O)[nH]c(Cc4ccccc4OC(F)(F)F)nc32)C1)c1ccccc1 (mixture of isomers) [Example 85]
Reply: 94

###

Target: human PDE9A2 (Homo sapiens)
Construct: crude lysate used as enzyme source)
Experiment: PDE9A2 enzymatic activity assay (scintillation proximity assay)
Settings: specific IC50 value is within the given range
pIC50: −log10 of the molar value.
Give measured pIC50 for each item. Keep answers brief.

As a guide, the following entries are already answered.
O=c1[nH]c(Cc2ccccc2-n2cccn2)nc2c1cnn2C1CCC(F)(F)CC1 = 7.00 to 9.00
CCCCc1nc2c(cnn2C2CCC(F)(F)CC2)c(=O)[nH]1 = 7.00 to 9.00
CCCC1OCCCC1Cc1nc2c(cnn2C2CCC(F)(F)CC2)c(=O)[nH]1 (racemic) = 5.82 to 7.00
O=c1[nH]c(Cc2cc(F)ccc2-c2ccncc2)nc2c1cnn2C1CCC(F)(F)CC1 = 7.00 to 9.00
O=c1[nH]c(Cc2ccccc2CCO)nc2c1cnn2C1CCC(F)(F)CC1 = 5.82 to 7.00

Hello, I would appreciate it if you could give pIC50 for each entry below.
1. CN(C)C(=O)Cc1ccccc1Cc1nc2c(cnn2C2CCC(F)(F)CC2)c(=O)[nH]1
2. NC1CCCC(n2ncc3c(=O)[nH]c(CC4CCCC4)nc32)C1 (racemic)

Reply:
5.82 to 7.00
5.82 to 7.00
